- system: A2A receptor (Homo sapiens, UniProt P29274)
- Sequence (P29274 whole entry): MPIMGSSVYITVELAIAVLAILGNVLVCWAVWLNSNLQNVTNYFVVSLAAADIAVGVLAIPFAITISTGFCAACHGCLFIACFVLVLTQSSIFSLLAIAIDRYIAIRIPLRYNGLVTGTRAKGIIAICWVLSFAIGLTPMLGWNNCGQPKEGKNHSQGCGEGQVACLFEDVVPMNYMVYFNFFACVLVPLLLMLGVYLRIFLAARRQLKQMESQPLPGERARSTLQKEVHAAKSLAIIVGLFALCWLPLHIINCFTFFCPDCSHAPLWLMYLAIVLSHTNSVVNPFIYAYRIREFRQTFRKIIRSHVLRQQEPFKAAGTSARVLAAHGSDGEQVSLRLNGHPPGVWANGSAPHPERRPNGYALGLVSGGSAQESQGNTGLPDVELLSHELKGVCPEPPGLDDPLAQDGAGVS
- test-name: Modulation of pCREB in human immune cells
- Assay type: cell-based
- Design: endogenous in cells; host or cells: human CD3+ T cells isolated from venous blood of healthy volunteers
- study-conditions: read-out: IC50 of pCREB inhibition
property-measured: IC50
Mention the unit after the number when you answer.

Query :: Any idea what its IC50 is? The compound is NC(=O)COc1cc(N2CCN(CCn3c(=O)sc4c3nc(N)n3nc(-c5ccco5)nc43)CC2)c(F)cc1F
Result :: 0.02 µM

* * *

- system: A2A receptor (Homo sapiens, UniProt P29274)
- test-name: Human IL-2 T cell assay (restoration of IL-2 production in CGS-21680-treated CD3+ T cells)
- Format: cell-based
- Set-up: endogenous in cells; host or cells: human CD3+ T cells isolated from venous blood of healthy volunteers
- study-conditions: IC50 (nM) (500 nM CGS-21680 as agonist, 10% FBS), restoration of IL-2 production, human CD3+ T cells, anti-CD3/CD28 beads, 500 nM CGS-21680, 10% FBS, 72 hours
- Source text: When T-cells are activated, they produce pro-inflammatory cytokines. When the A2A receptor is activated in T cells, the amount of cytokines produced in response to stimulation of T-cells is reduced. Venous blood from healthy volunteers, all of whom signed an informed consent approved by the Ethics Committee (FOR-UIC-BV-050-01-01 ICF_HBS_HD Version 5.0), was obtained via ImmuneHealth (Centre Hospitalier Universitaire Tivoli, La Louviere, Belgium). […]
Criterion: IC50 strictly less than 0.9 nM. Met: Fulfilled. Not met: Not fulfilled.

These recorded examples may help you get a feel for the data.
CC(C)(Oc1ccc(N2CCN(CCn3c(=O)sc4c3nc(N)n3nc(-c5ccco5)nc43)CC2)c(F)c1)C(=O)O    Not fulfilled
NC(=O)COc1cc(N2CCN(CCn3c(=O)sc4c3nc(N)n3nc(-c5ccco5)nc43)CC2)c(F)cc1F    Fulfilled
Nc1nc2c(sc(=O)n2CCN2CCN(c3ccc(OCC(=O)O)cc3F)CC2)c2nc(-c3ccco3)nn12    Fulfilled
CNCCNC(=O)c1ccc(N2CCN(CCn3c(=O)sc4c3nc(N)n3nc(-c5ccco5)nc43)CC2)c(F)c1    Not fulfilled

Consider the record given below.
Query :: Is IC50 of CNCCNC(=O)COc1ccc(N2CCN(CCn3c(=O)sc4c3nc(N)n3nc(-c5ccco5)nc43)CC2)c(F)c1 strictly below 0.9 nM?
Result :: Not fulfilled

* * *

- test-name: in vitro
- study-conditions: human, Caco-2, pH 7.4
Overview of recorded efflux ratio at 120 min, 2 μM for various compounds
Please respond with just the number, no unit label.

Some compounds with recorded efflux ratio at 120 min, 2 μM:
NCCNC(=O)c1ccc(N2CCN(CCn3c(=O)sc4c3nc(N)n3nc(-c5ccco5)nc43)CC2)c(F)c1    3
Nc1nc2c(sc(=O)n2CCN2CCN(c3cc(O[C@H]4CNC[C@H]4F)c(F)cc3F)CC2)c2nc(-c3ccco3)nn12    173
CN(C)CCNC(=O)COc1ccc(N2CCN(CCn3c(=O)sc4c3nc(N)n3nc(-c5ccco5)nc43)CC2)c(F)c1    469

In the following, a different compound is considered.
Query :: Any idea what its efflux ratio at 120 min, 2 μM is? The compound is NC(=O)CNCCOc1ccc(N2CCN(CCn3c(=O)sc4c3nc(N)n3nc(-c5ccco5)nc43)CC2)c(F)c1
Result :: 41
